Below, each entry is listed alongside its reported AUC(0-inf).
- assay.name: Oral bioavailability in rats, Method B (plasma and brain PK)
- Type: in vivo, Sprague Dawley rats
- setup.conditions: male, Sprague Dawley; rat plasma, Method B, 1 mg/kg po; values represent AUC0-last; read-out: AUC0-inf (po) (converted)

CN[C@@]1(c2ccc(F)cc2)CCCCC1=O | 50.3 ng·h/mL
N[C@]1(c2ccc(F)cc2)CCCCC1=O | 1140 ng·h/mL

# context switch: different compound, same AUC(0-inf)
Request: Tell us which AUC(0-inf) value is on record for CN[C@]1(c2ccc(F)cc2)CCCCC1=O
Result: 37.8 ng·h/mL
